B1: GMCL1 (parent)
chain: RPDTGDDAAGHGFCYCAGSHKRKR

- Variants of: B1
- protocol-description: protein stability index of a GFP-peptide fusion (GPS, HEK-293T) (PSI 1-6); higher = more stable;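 note: lentivirally expressed fusions sorted by FACS into six bins by GFP to DsRed ratio, PSI derived from sequencing read proportions per bin multiplied by bin number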
- test-conditions: c terminus: a fixed tail appended
Decide using protein stability index: a value greater than or equal to 3 is TRUE, a smaller one is FALSE.

Would you please look over these solved cases?
1) RPDTGDDAAGHGFCYCAGSCKRKR [H20C]
TRUE
2) RPDTGDDAAGHGFTYCAGSHKRKR [C14T]
TRUE

Incoming: Is it the case that RPDTGDDWAGHGFCYCAGSHKRKR [A8W] has protein stability index reaching or exceeding 3?
Outgoing: TRUE

Incoming: Textbook exercise: given the entry RPDTGDDAALHGFCYCAGSHKRKR [G10L] , state whether its protein stability index is greater than or equal to 3.
Outgoing: FALSE

Incoming: # bool: protein stability index of NPDTGDDAAGHGFCYCAGSHKRKR [R1N] >= 3
Outgoing: FALSE

Incoming: Given RPDTGDDAAGPGFCYCAGSHKRKR [H11P] , state whether its protein stability index is at least 3.
Outgoing: TRUE
